assay overview: In vivo PK study, IP, SC and PO
measurement parameters: male, CD-1, mouse, plasma, po, 20 mg/kg
measured parameter: Tmax (min)
Report only the number, with the unit min understood.

I have this compound here, CC(C)Oc1ccc(-c2ncc(CNc3ccnc(C(F)(F)F)c3)cn2)cc1Cl , and I need its recorded Tmax.
49.8

* * *

assay overview: In vivo PK study, IP, SC and PO
measurement parameters: male, CD-1, mouse, plasma, po, 20 mg/kg
measured parameter: Vd/F
Answer with the value and then the unit.

Look at this molecule and give its reported Vd/F. CC(C)Oc1ccc(-c2ncc(CNc3ccnc(C(F)(F)F)c3)cn2)cc1Cl [Compound 24]
0.25 L/kg

* * *

target or system: CYP2D6 (Homo sapiens, UniProt P10635)
measured parameter: IC50

Hi! What's the reported IC50 for CC(C)Oc1ccc(-c2ncc(CNc3ccnc(C(F)(F)F)c3)cn2)cc1Cl [Compound 24] on CYP2D6 (Homo sapiens, UniProt P10635)?
> 25 µM

* * *

target or system: hKv1.5 potassium channels (Homo sapiens)
Construct: host or cells: CHO cells
assay overview: Ion channel profiling at Charles River: hKv1.5
Type: cell-based
measurement parameters: expressed in CHO cells; read-out: ESTIMATED IC50
measured parameter: pIC50
Reminder that pIC50 means the negative base-10 logarithm of the concentration expressed in mol/L.

Item under review: CC(C)Oc1ccc(-c2ncc(CNc3ccnc(C(F)(F)F)c3)cn2)cc1Cl [Compound 24] . Reported pIC50?
4.49

* * *

target or system: TRPC6 channel (Homo sapiens)
Sequence (Q9Y210 whole entry): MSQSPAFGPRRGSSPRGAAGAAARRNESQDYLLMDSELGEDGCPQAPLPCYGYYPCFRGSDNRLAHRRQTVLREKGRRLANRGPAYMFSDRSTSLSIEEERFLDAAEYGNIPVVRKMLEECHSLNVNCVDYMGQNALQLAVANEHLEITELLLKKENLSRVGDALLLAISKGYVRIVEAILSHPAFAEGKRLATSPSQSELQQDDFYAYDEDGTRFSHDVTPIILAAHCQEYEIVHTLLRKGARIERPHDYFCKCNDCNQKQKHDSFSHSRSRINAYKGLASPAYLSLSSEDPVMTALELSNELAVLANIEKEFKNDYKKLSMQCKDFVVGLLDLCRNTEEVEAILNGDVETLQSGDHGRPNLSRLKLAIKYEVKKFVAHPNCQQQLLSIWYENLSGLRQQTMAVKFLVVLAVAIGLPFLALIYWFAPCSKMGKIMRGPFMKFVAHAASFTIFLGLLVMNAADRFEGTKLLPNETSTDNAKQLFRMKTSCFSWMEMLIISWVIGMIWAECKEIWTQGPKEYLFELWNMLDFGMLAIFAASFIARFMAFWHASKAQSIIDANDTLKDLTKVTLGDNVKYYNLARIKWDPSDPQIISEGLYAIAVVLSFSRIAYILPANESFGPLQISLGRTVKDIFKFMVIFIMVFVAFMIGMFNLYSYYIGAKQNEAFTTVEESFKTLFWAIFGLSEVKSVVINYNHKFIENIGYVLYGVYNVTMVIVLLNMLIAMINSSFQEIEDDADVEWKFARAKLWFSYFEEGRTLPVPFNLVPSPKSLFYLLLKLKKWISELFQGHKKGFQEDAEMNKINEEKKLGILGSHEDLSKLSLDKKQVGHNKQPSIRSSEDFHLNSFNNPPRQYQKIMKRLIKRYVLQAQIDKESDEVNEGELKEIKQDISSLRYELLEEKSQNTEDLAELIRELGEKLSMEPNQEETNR
assay overview: Ion channel profiling at Charles River: TRPC6
measurement parameters: expressed in HEK293 cells; read-out: ESTIMATED IC50
measured parameter: IC50

May I ask what IC50 has been recorded for CC(C)Oc1ccc(-c2ncc(CNc3ccnc(C(F)(F)F)c3)cn2)cc1Cl [Compound 24] ?
> 30 µM

* * *

assay overview: In vivo PK study, intratracheal (IT) and intravenous (IV)
measurement parameters: male, CD1, mouse, lung, inhaled or intranasal, […], Lung Tmax, lung tissue, […] IT
measured parameter: Tmax (min)
Quick note: give the figure in min, leave out the unit.

Could you share which Tmax value was measured for NC[C@H]1O[C@H](O[C@H]2[C@H](O)[C@@H](O[C@H]3O[C@H](CO)[C@@H](O)[C@H](N)[C@H]3O)[C@H](N)C[C@@H]2N)[C@H](N)C[C@@H]1O ?
49.8

* * *

assay overview: in vivo
measurement parameters: male, CD1, mouse, in vivo, inhaled or intranasal, […], Lung Tmax
measured parameter: Tmax (min)
Could you give me the number in min? Just the number is fine.

Record request: Tmax value, item CC(C)Oc1ccc(-c2ncc(CNc3ccnc(C(F)(F)F)c3)cn2)cc1Cl [Compound 24]
40.2

* * *

target or system: Cav1.2 (L-type) human Ca ion channel (Homo sapiens, UniProt Q13936)
Sequence (Q13936 whole entry): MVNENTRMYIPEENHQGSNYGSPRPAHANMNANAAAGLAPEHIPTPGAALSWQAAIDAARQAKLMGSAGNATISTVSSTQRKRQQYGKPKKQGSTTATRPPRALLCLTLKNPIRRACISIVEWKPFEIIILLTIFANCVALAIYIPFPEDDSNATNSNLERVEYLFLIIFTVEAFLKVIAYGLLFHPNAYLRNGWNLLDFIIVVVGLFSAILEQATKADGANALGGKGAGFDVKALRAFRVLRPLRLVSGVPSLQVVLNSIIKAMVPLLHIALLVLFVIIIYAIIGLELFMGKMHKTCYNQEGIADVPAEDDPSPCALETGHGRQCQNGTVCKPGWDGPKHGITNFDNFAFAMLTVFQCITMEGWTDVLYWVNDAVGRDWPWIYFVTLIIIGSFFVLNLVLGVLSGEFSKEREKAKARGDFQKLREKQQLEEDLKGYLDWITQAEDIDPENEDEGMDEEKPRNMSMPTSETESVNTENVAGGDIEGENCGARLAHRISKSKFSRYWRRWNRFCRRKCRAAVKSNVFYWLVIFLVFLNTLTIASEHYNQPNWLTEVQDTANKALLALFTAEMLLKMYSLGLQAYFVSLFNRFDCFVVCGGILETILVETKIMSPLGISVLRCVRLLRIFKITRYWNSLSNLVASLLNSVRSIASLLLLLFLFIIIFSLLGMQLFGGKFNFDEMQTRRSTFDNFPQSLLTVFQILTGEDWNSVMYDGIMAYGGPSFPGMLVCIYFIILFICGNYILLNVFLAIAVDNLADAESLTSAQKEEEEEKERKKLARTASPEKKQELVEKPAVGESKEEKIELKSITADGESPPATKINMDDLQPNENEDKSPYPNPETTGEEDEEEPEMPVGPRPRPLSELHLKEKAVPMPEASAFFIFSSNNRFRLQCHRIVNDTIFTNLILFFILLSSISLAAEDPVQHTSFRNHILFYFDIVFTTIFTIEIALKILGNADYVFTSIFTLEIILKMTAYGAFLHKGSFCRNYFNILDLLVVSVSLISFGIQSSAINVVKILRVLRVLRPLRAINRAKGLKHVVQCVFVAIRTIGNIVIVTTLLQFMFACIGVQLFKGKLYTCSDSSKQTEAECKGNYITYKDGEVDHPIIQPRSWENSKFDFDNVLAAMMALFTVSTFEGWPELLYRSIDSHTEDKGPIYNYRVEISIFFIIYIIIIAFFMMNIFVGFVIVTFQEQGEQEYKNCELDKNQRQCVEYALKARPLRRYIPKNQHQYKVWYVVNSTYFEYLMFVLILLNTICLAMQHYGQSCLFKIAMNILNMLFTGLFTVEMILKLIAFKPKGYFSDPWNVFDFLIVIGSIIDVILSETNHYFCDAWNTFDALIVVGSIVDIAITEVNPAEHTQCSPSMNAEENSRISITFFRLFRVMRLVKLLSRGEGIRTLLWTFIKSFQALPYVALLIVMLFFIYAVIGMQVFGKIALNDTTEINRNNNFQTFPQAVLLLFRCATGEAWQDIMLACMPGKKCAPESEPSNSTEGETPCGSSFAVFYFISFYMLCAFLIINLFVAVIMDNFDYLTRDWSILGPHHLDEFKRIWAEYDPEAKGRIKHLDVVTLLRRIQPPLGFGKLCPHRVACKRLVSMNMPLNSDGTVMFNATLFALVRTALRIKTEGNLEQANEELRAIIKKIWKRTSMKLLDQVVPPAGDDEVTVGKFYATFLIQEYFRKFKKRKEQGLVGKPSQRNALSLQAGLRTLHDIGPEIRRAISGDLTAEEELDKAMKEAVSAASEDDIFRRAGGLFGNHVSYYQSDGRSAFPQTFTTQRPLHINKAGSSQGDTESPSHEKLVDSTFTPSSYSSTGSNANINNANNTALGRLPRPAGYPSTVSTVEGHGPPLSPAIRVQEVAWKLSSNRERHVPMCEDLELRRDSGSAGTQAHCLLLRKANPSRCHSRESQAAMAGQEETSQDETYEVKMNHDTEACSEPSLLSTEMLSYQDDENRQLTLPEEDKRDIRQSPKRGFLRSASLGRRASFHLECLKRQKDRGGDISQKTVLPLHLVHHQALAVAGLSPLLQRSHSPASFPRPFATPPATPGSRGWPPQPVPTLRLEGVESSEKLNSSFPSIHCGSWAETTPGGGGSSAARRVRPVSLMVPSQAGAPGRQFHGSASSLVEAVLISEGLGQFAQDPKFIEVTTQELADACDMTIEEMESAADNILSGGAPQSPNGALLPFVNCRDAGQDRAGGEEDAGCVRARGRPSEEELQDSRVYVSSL
Sequence (Q08289 whole entry partner): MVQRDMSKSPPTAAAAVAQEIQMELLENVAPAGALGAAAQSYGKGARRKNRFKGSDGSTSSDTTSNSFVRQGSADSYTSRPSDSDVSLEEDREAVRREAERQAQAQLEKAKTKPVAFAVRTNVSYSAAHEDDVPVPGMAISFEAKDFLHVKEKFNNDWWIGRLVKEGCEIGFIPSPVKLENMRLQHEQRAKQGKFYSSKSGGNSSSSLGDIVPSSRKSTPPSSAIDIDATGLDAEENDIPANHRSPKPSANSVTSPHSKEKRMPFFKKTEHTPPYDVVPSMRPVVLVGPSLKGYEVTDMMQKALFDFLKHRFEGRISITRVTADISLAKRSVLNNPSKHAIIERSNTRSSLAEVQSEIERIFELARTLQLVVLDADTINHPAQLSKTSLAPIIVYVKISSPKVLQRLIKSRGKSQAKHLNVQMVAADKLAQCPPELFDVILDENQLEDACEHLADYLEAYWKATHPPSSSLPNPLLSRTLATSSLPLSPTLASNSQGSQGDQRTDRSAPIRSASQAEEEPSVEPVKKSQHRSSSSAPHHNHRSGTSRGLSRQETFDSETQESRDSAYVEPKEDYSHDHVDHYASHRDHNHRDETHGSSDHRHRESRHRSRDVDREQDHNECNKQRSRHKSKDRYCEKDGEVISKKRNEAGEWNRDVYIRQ
Sequence (P54289 25-956 partner limits assumed): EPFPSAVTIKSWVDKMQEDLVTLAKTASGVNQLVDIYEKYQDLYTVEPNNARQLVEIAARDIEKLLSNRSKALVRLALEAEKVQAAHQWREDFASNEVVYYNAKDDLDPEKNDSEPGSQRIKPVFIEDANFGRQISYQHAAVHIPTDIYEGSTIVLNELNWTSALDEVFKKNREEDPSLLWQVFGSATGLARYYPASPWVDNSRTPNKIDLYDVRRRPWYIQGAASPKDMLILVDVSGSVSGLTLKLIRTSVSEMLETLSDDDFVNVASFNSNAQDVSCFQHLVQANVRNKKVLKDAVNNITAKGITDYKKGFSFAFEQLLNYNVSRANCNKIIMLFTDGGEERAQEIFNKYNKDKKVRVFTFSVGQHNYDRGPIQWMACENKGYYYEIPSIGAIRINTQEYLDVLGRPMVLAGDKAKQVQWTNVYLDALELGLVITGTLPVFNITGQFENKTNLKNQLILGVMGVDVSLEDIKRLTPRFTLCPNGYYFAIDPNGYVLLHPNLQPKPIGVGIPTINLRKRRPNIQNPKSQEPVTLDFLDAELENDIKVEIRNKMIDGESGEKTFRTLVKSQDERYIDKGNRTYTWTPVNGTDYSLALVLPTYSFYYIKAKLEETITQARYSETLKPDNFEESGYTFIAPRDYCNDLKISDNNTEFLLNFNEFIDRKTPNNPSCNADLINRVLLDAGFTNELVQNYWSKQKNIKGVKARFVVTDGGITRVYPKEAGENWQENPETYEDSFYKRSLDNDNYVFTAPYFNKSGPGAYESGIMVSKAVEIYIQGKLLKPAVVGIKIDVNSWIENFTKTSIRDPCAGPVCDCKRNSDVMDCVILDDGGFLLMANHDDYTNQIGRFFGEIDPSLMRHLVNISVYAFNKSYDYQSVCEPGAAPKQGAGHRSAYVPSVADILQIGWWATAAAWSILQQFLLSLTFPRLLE
Sequence (P54289 957-1103 partner limits assumed): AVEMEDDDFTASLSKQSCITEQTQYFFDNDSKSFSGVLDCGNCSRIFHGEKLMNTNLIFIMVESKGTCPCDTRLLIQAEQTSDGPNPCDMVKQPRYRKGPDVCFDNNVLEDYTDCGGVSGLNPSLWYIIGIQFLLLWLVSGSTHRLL
pIC50: −log10 of the molar value.
measured parameter: pIC50

What is its pIC50 for Cav1.2 (L-type) human Ca ion channel (Homo sapiens, UniProt Q13936)? Entry: CC(C)Oc1ccc(-c2ncc(CNc3ccnc(C(F)(F)F)c3)cn2)cc1Cl
< 4.52

* * *

assay overview: In vivo PK study, IP, SC and PO
measurement parameters: male, CD-1, mouse, plasma, po, 20 mg/kg
measured parameter: bioavailability
Write the numeric value and append its unit.

Please give the measured bioavailability for this compound: CC(C)Oc1ccc(-c2ncc(CNc3ccnc(C(F)(F)F)c3)cn2)cc1Cl [Compound 24]
13.8%
